# System: Candida albicans
# Assay explanation: Antifungal activity against Candida albicans at a concentration of 5 mg/mL in MeOH
# Type: functional

{"Compound": "CCC(C)CCCCCCCCCCC(=O)N[C@@H]1C[C@@H](O)CNC(=O)[C@@H]2[C@@H](O)[C@@H](C)CN2C(=O)[C@H](CO)NC(=O)[C@H]([C@@H](O)Cc2ccc(O)cc2)NC(=O)[C@@H]2C[C@@H](O)CN2C(=O)[C@H]([C@@H](C)O)NC1=O (some centres undefined)", "Zone size / mm": 38}
{"Compound": "CCC(C)CCCCCCCCCCC(=O)N[C@@H]1C[C@@H](O)C(S(=O)(=O)CC(=O)OC)NC(=O)[C@@H]2[C@@H](O)[C@@H](C)CN2C(=O)C(CO)NC(=O)C([C@@H](O)[C@H](O)c2ccc(O)cc2)NC(=O)[C@@H]2C[C@@H](O)CN2C(=O)C(C(C)O)NC1=O (some centres undefined)", "Zone size / mm": 26}
{"Compound": "CCC(C)CCCCCCCCCCC(=O)N[C@@H]1C[C@H](O)C(C#N)NC(=O)[C@@H]2[C@@H](O)[C@@H](C)CN2C(=O)[C@H](CO)NC(=O)[C@H]([C@@H](O)[C@H](O)c2ccc(O)cc2)NC(=O)[C@@H]2C[C@@H](O)CN2C(=O)[C@H]([C@@H](C)O)NC1=O (some centres undefined)", "Zone size / mm": 25}
{"Compound": "CCC(C)CCCCCCCCCCC(=O)N[C@@H]1C[C@@H](O)C(OCc2ccccc2)NC(=O)[C@@H]2[C@@H](O)[C@@H](C)CN2C(=O)C(CO)NC(=O)C([C@@H](O)[C@H](O)c2ccc(O)cc2)NC(=O)[C@@H]2C[C@@H](O)CN2C(=O)C(C(C)O)NC1=O (some centres undefined)", "Zone size / mm": 16}
